# ASSAYED_SYSTEM: D-3-phosphoglycerate dehydrogenase (Homo sapiens) (UniProt O43175)
# PROTOCOL_DESCRIPTION: Inhibition of N-terminal His6-tagged human liver PHGDH expressed in Escherichia coli Rosetta (DE3)pLysS at 57 uM using 3-phosphoglycerate as substrate after 20 mins in presence of NAD+ by resazurin fluorescence based PSAT1/diaphorase/PSPH coupled enzyme assay
READOUT: inhibition
Value and unit, in that order.

Here are 3 compounds together with their reported answers.
COMPOUND | inhibition
Cc1cc(C)nc(NC(=S)N2CCN(Cc3ccncc3)CC2)c1 | 67%
Cc1cc(C)nc(NC(=S)N2CCN(Cc3ccccn3)CC2)c1 | 51%
COc1ccc(N2CCN(C(=S)Nc3cc(C)cc(C)n3)CC2)cc1 | 99%

Inquiry: For the compound shown here, `Cc1cc(C)nc(NC(=S)N(C)CCN(C)Cc2ccc(C(F)(F)F)cc2)c1` , give the reported inhibition.
Reply text: 84%

Inquiry: What about this compound? `Cc1cc(C)nc(NC(=S)N2CCN(Cc3ccc(F)cc3)CC2)c1`
Reply text: 86%

Inquiry: What about this compound? `Cc1cc(C)nc(NC(=S)N2CCN(Cc3cccc(F)c3)CC2)c1`
Reply text: 88%

Inquiry: What about this compound? Cc1cc(C)nc(NC(=S)N2CCN(Cc3ccc(C(F)(F)F)cc3)C(CO)C2)c1 (configuration not stated)
Reply text: 89%

###

# ASSAYED_SYSTEM: D-3-phosphoglycerate dehydrogenase (Homo sapiens, UniProt O43175)
# Sequence (O43175 whole entry): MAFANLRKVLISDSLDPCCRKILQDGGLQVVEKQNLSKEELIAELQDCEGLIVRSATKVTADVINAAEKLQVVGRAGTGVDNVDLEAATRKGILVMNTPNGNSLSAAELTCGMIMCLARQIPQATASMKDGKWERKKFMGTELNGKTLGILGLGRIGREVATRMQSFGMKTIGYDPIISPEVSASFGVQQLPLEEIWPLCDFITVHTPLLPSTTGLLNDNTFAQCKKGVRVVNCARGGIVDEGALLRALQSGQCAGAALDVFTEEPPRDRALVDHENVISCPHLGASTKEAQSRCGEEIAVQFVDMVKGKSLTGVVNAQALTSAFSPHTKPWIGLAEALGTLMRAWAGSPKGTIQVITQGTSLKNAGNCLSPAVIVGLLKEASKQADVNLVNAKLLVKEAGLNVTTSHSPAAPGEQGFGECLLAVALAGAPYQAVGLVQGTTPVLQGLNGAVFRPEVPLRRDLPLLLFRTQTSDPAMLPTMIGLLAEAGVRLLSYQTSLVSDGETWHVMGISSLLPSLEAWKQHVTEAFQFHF
pIC50: −log10 of the molar value.
Outcome: Criterion met for pIC50 of at least 5; Criterion not met for anything lower.

Previously resolved entries follow.
MOLECULE | LABEL_CLASS
COc1ccc(N2CCN(C(=S)Nc3cc(C)cc(C)n3)CC2)cc1 | Criterion not met
Cc1cc(C)nc(NC(=S)N2CCN(C(=O)c3cccc(C(F)(F)F)c3)CC2)c1 | Criterion not met
Cc1cc(C)nc(NC(=S)N2CCN(Cc3ccccc3)CC2)c1 | Criterion not met

Inquiry: Check the entry `FC(F)(F)c1cccc(N2CCN(C(=S)Nc3ccncc3)CC2)c1` : does pIC50 equal or exceed 5?
Reply text: Criterion not met

Inquiry: What about this molecule? `Cc1cc(C)nc(NC(=S)N2CCN(Cc3cccc(C(F)(F)F)c3)CC2)c1`
Reply text: Criterion met

Inquiry: What about this molecule? `Cc1cc(C)nc(NC(=S)N2CCN(Cc3cccc(F)c3)CC2)c1`
Reply text: Criterion not met

Inquiry: What about this molecule? `Cc1ccc(CN2CCN(C(=S)Nc3cc(C)cc(C)n3)CC2)cc1`
Reply text: Criterion not met

Inquiry: What about this molecule? `Cc1cc(C)nc(NC(=S)N2CCN(c3cccc(C(F)(F)F)c3)CC2)c1`
Reply text: Criterion met
